Measured Ki values are reported for all entries that follow.
biological target: α2A receptor (Homo sapiens, UniProt P08913); construct: expressed in transfected cells; host or cells: CHO-K1; assay: Competitive receptor binding assay, α2A (3H-RX821002, CHO-K1-α2A membranes); settings: Ki; CHO-K1-α2A membranes, 3H-RX821002; read-out: Binding α2A
Sequence (P08913 whole entry): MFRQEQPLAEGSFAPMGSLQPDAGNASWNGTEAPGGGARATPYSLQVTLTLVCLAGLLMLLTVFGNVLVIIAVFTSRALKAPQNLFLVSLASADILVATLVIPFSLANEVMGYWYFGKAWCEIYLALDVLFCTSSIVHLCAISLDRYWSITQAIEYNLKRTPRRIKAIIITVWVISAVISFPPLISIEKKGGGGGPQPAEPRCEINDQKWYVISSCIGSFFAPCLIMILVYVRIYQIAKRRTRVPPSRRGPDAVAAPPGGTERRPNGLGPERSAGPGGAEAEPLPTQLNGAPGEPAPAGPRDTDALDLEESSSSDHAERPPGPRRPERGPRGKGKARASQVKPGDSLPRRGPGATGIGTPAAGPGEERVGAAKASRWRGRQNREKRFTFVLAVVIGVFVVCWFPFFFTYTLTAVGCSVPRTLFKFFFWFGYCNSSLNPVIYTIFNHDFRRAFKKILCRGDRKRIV
Quick reminder: number only, in nM, skip the unit.

Solved entries:
// Ki lookup, molecule = C[C@H](c1c[nH]cn1)c1cc(F)cc2c1C(=O)CC2 , result: 701

Given item c1cc2c(c(Cc3c[nH]cn3)c1)SCCC2 , the value recorded as its Ki is 15.6

More entries:
Notebook: CC(c1c[nH]cn1)c1cccc2c1SCCC2 (stereo not drawn) , Ki read as 7.72

====

Catalogue of EC50 readings, one per entry.
biological target: α2A adrenoceptor (Homo sapiens, UniProt P08913); construct: host or cells: 293; test: Agonist screening mode cAMP assay, 293-α2A cells; assay type: cell-based; conditions: EC50; cAMP-Gi, 293-α2A cells, Forskolin 1 µM; read-out: Function α2A
Lab book: enter the figure in nM, no units written.

Lab book: EC50 of c1cc2c(c(Cc3c[nH]cn3)c1)SCCC2 noted as 1.28

// EC50 lookup, compound = C[C@H](c1c[nH]cn1)c1cc(F)cc2c1C(=O)CC2 , result: 13.2

Proceeding to the next compound to report its EC50.
Data point: CC(c1c[nH]cn1)c1cccc2c1SCCC2 (stereo not drawn) ; EC50 = 0.53

====

Reported log10 Ki is given for each of the following molecules.
biological target: α1A receptor (Homo sapiens, UniProt P35348); construct: expressed in transfected cells; host or cells: CHO-K1; test: Competitive receptor binding assay, α1A (3H-Prazosin, CHO-K1-α1A membranes)
Sequence (P35348 whole entry): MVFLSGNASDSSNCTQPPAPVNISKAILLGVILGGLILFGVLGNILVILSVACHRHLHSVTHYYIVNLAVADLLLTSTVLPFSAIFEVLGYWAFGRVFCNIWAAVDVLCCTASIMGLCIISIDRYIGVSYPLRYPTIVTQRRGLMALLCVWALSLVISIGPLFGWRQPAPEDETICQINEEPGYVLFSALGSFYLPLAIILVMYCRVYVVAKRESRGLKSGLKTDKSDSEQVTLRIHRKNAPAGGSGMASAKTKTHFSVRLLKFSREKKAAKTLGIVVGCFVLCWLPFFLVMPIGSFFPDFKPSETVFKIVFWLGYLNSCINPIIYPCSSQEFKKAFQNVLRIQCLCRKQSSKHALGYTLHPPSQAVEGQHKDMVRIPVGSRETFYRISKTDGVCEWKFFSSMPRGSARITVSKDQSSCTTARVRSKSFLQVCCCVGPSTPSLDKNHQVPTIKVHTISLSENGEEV
Hey, these are logged values: log10 of Ki, µM being the unit before logging.

Here is how some molecules turned out for log10 Ki.
Looking up C[C@H](c1c[nH]cn1)c1cccc2c1CCC2 , I see its log10 Ki listed as -0.37

Noted for C[C@H](c1c[nH]cn1)c1cc(F)cc2c1C=CC2 : its log10 Ki reads -0.17

According to the records, this molecule CC1Cc2cccc(C(C)c3c[nH]cn3)c2O1 (centres unmarked) displays log10 Ki of -0.86

So for CC(c1c[nH]cn1)c1cccc2c1C=CC2 (centres unmarked) [Compound 8, 4-[1-(1H-Inden-4-yl)ethyl]-1H-imidazole] , the logged log10 Ki turned out to be 0.05

log10 Ki reading for CC(c1c[nH]cn1)c1cccc2c1CC2 (centres unmarked) : 0.05

// recorded log10 Ki for CC(c1c[nH]cn1)c1cccc2c1CCCC2 (centres unmarked) : 0.31

Could you now look at the following molecule, please?
The value of log10 Ki measured for the molecule CC(c1c[nH]cn1)c1cccc2c1OCC2 (centres unmarked) turned out to be -0.12

====

molecular target: α1A adrenoceptor (Homo sapiens, UniProt P35348); assay: Agonist screening mode IP-One assay, 293-α1A cells
Counter-ions that a name gives are not always drawn.
Entries and their EC50
Give the value in nM but do not write nM after it.

Please review the following examples before continuing.
Record c1cc2c(c(Cc3c[nH]cn3)c1)SCCC2 . Reported EC50: 3.16

Value of measured EC50 for the entry C[C@H](c1c[nH]cn1)c1cc(F)cc2c1C=CC2 : 36.8

For record C[C@H](c1c[nH]cn1)c1cc(F)cc2c1C(=O)CC2 the listed EC50 is 9.75

Recorded result, CC(c1c[nH]cn1)c1cccc2c1C=CC2(C)C (stereo not drawn) , EC50: 104

---
Recorded result, CC(c1c[nH]cn1)c1cccc2c1C=CC2 (stereo not drawn) [Compound 8, 4-[1-(1H-Inden-4-yl)ethyl]-1H-imidazole] , EC50: 21.8

Reported EC50 of CC(c1c[nH]cn1)c1cccc2c1SCCC2 (stereo not drawn) : 5.32

EC50 recorded for this molecule, C[C@H](c1c[nH]cn1)c1cccc2c1CCC2 , is 7.94

Recorded result, Cc1cccc([C@H](C)c2cnc[nH]2)c1C [Dexmedetomidine hydrochloride, reference compound] , EC50: 9.55

Note to self: EC50 recorded for CC(c1c[nH]cn1)c1cccc2c1CCCC2 (stereo not drawn) was 25.1

Record CC(c1c[nH]cn1)c1cccc2c1OCC2 (stereo not drawn) . Reported EC50: 24.1

Reported EC50 for CC1Cc2cccc(C(C)c3c[nH]cn3)c2O1 (stereo not drawn) was 4.73

The recorded EC50 for CC(c1c[nH]cn1)c1cccc2c1CC2 (stereo not drawn) is 57

====

HR decrease Duration reference
test system: Male SD rats; experiment: Fluctuations in blood pressure and heart rate after administration; type: in vivo; settings: isoflurane-anesthetized male SD rats, tail vein injection, dose as in Test Example 3
Structures can show the parent of a compound that is named as a salt.
// return numeric value only (unit: min, not printed)

Would you please look over these solved cases?
Entry CC(c1c[nH]cn1)c1cccc2c1C=CC2 (stereo not drawn) [Compound 8, 4-[1-(1H-Inden-4-yl)ethyl]-1H-imidazole] , Male SD rats data, HR decrease Duration value: 60

Form: item CC(c1c[nH]cn1)c1cccc2c1OCC2 (stereo not drawn) [Compound 10] ; test system Male SD rats; HR decrease Duration: 30

Field HR decrease Duration (system: Male SD rats) for entry CC(c1c[nH]cn1)c1cccc2c1COC2 (stereo not drawn) [Compound 5] = 30

Others:
Kindly note: Male SD rats, Cc1cccc([C@H](C)c2cnc[nH]2)c1C [Dexmedetomidine hydrochloride, reference compound] , HR decrease Duration value reported: 90

For C[C@H](c1c[nH]cn1)c1cccc2c1CCC2 [Compound 31-b] on Male SD rats, measured HR decrease Duration was 60

// compound C[C@H](c1c[nH]cn1)c1cc(F)cc2c1C=CC2 [Compound 11-b] , assay Male SD rats, HR decrease Duration value: 60

====

Biological target: α2B receptor (Homo sapiens)
Construct: expressed in transfected cells; host or cells: CHO-K1
Sequence (P18089 whole entry): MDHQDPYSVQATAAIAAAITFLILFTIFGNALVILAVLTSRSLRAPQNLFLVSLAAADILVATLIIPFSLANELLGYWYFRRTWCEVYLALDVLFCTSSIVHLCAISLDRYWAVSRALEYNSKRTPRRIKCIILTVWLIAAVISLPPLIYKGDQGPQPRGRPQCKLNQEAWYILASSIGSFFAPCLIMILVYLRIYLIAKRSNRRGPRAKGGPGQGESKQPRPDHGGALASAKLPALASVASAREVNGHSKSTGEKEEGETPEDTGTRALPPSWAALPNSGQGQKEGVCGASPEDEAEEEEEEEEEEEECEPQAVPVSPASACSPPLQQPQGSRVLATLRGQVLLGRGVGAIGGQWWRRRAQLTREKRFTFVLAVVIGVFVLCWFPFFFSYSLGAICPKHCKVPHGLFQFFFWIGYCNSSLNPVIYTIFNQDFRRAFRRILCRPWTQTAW
Assay: Competitive receptor binding assay, α2B (3H-RX821002, CHO-K1-α2B membranes)
Conditions: Ki; CHO-K1-α2B membranes, 3H-RX821002; read-out: Binding α2B
Protocol: Test sample (compound): The theoretical sample weighing amount was calculated according to the designed concentration and the required volume. […] Based on the effect values of the compound samples at different concentration test points, the GraphPad Prism software was used to fit the action curves of the compound samples to the receptors, and the Ki values were calculated.
Counter-ions that a name gives are not always drawn.
Property: Ki; scope: individual compounds
API: value field is a number in nM; no unit string.

Per the record, CC(c1c[nH]cn1)c1cccc2c1SCCC2 (stereo not shown) [Compound 2] has Ki of 11.7

For reference, reported Ki for c1cc2c(c(Cc3c[nH]cn3)c1)SCCC2 [Compound 1] stands at 59.1

Cc1cccc([C@H](C)c2cnc[nH]2)c1C [Dexmedetomidine hydrochloride, reference compound] yielded Ki of 3.66

Next:
Ki in this record for C[C@H](c1c[nH]cn1)c1cc(F)cc2c1C(=O)CC2 [Compound 38-b] : 49.1

====

Target: α2C adrenoceptor (Homo sapiens)
Sequence (P18825 whole entry): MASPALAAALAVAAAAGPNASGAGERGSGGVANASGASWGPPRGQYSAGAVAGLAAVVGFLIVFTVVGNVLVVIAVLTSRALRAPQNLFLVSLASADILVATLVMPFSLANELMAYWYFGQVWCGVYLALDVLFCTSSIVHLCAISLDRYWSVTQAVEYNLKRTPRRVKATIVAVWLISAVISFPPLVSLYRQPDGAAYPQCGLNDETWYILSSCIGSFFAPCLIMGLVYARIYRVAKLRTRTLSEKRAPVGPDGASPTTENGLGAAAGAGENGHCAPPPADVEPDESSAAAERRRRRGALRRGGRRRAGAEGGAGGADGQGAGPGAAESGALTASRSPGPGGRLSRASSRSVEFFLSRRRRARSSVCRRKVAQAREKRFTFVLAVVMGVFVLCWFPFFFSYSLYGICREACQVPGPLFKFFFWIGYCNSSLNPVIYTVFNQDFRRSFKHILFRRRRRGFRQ
Test: Agonist screening mode IP-One assay, CHO-α2C/Gα15 cells
Procedure: The cells were centrifuged at 1000 rpm for 5 min, and the supernatant was discarded. 3 mL of PBS was added, and the mixture was gently pipetted to be mixed well. The cells were centrifuged again at 1000 rpm for 5 min, and the supernatant was discarded. […]
Reported values of log10 of EC50 for individual entries
Note the log scale: values are log10 of EC50 expressed in nM.

Entry under test: CC(c1c[nH]cn1)c1cccc2c1C=CC2(C)C (stereo not drawn) . Its log10 of EC50 was 2.13

Query C[C@H](c1c[nH]cn1)c1cccc2c1CCC2 yields log10 of EC50 of 0.25

Next:
Reported log10 of EC50 ( CC(c1c[nH]cn1)c1cccc2c1C=CC2 (stereo not drawn) [Compound 8, 4-[1-(1H-Inden-4-yl)ethyl]-1H-imidazole] ) = 1.00

====

test system: Male SD rats; test: Fluctuations in blood pressure and heart rate after administration; assay type: in vivo; conditions: isoflurane-anesthetized male SD rats, tail vein injection, dose as in Test Example 3, within 90 min
Counter-ions that a name gives are not always drawn.
Let's look at some compounds and their measured MAP increase Maximum increase rate.
I'd appreciate it if you wrote the number followed by its unit.

Consider C[C@H](c1c[nH]cn1)c1cccc2c1CCC2 . Its measured MAP increase Maximum increase rate is 24.0±11.1%

Cc1cccc([C@H](C)c2cnc[nH]2)c1C [Dexmedetomidine hydrochloride, reference compound] yielded MAP increase Maximum increase rate of 27.7±4.1%

// C[C@H](c1c[nH]cn1)c1cc(F)cc2c1C=CC2 : MAP increase Maximum increase rate value = 24.1±4.96%

Entry CC(c1c[nH]cn1)c1cccc2c1C=CC2 (stereo not drawn) [Compound 8, 4-[1-(1H-Inden-4-yl)ethyl]-1H-imidazole] ; MAP increase Maximum increase rate = 32.0±10.5%

The measured MAP increase Maximum increase rate associated with CC(c1c[nH]cn1)c1cccc2c1COC2 (stereo not drawn) reads 19.9±6.3%

For the next question, use this compound.
Short answer for CC(c1c[nH]cn1)c1cccc2c1OCC2 (stereo not drawn) : MAP increase Maximum increase rate was 17.3±5.0 %
